Tested on: Bacillus cereus
Assay: Initial velocity (v) of the hydrolysis catalyzed by Bacillus cereus sphingomyelinase was measured
Format: functional
Task for the reader: assign each of the following compounds its reported Velocity.
One number for each entry, in µM/min/mg.

Some solved cases for reference:
{"ENTRY_SMILES": "CCCCCCC[C@H](O)[C@H](COP(=O)([O-])OCC[N+](C)(C)C)NC(=O)CCCCC", "VALUE": 5.08}
{"ENTRY_SMILES": "CCCCCCC[C@@H](O)[C@H](COP(=O)([O-])OCC[N+](C)(C)C)NC(=O)CCCCC", "VALUE": 109.15}
{"ENTRY_SMILES": "CCCCC/C=C/[C@H](O)[C@H](COP(=O)([O-])OCC[N+](C)(C)C)NC(=O)CCCCC", "VALUE": 11.17}

The record that follows has no Velocity shown yet.
Entry under test: CCCCC/C=C/[C@@H](O)[C@H](COP(=O)([O-])OCC[N+](C)(C)C)NC(=O)CCCCC . Its Velocity was 136.31

Where do these numbers come from? They come from ChEMBL document CHEMBL1151078.
